- test: yeast display, Sf9 membrane polyspecificity reagent, FACS + sequencing; frameworks hold sequencing errors
metric: polyreactivity (PSR sort gate)

Field: example entries. Status: answers known.
sequence.data: QVQLEESGGCLVQAGGSLRLSCAASGFTIRDYTMGWSRQAPGKERELVAPISRSGGSTYYADSVKGRFTISRDNATNTVYLQMYSLKPEDTAVYYFAALWHAVFYADYDYWGQGTQVSVSS
polyreactivity (PSR sort gate): high polyreactivity

sequence.data: QVQLVESGGGLVQAGGSLRLSCAASGSTFAYYAMGLYRQAPGKERELVASISWRGGSTYYADSVKGRFTISRDNAKNTVYLQMNSLKPEVTAVYYCAAGRFYKWSRSQEYDYWGQGTQVTVSS
polyreactivity (PSR sort gate): low polyreactivity

sequence.data: QVQLVESGGGLVQAGGSLRLSCAASGRIYVIYGMGWYRQAPGKERELVATISWSGSSTSYADSVKGRFTISRDNAKNTVYLQMNSLKHEDTAVYYCNAPVQSETFDYWGQGTQVTVSS
polyreactivity (PSR sort gate): high polyreactivity

sequence.data: QVQLVESGGGLVQAGGSLRLTCAASGRILTCYAMGWYRQEPGKERELVASINWRGGSTYYADSVKGRFTISRDNAKNTVYLQMNSLKPEDTAGYYCARYKYTRQTRVEYGYWGQGTQVTVSS
polyreactivity (PSR sort gate): high polyreactivity

sequence.data: QLQLVESGGGLVQAGGSLRLSCAPSGRIFAPYAMGWYIPAPVKERELVAAIRLSGGSTYYADSVKGRFTISRDNAKNTVYLKMNSLKPEDTEVYYCAARYPGVARFYYWGQATQVTVSS
polyreactivity (PSR sort gate): high polyreactivity

sequence.data: QVQLVESVGGLVQAGGSLRLSCAASGSTFDKYAMGWYRQAPGKERELVATISQSGASTYYADSVKGRFTISRDNAKNTVYLQMNSLKPEDTAVYYCAARSSTRVWYWGRYYYWGQGTQVTVSS
polyreactivity (PSR sort gate): high polyreactivity

# return polyreactivity (PSR sort gate) for each item in the list
1. QVQLVESGGGLVQAGGSLRLSCAASGIIFTRNAMGWYRPAPGKERELVAASSRSGGSTYYADSVKGRFTISRDNAKNTVYLQMNSLKPEDTAVYDGAAAWSEYPYDYWGQGTQVTVSS
2. QVQLVESGGGLVQAGGSLRLSCAASGRTFRYYAMGWYRQAPGKEREWDAAISRGDSTHYADSVKGRFTISRDNAKNSVYLQMNSLKPEDTEVYYCAAYRGRSVDRQPYYWGQGTQVTVSS
3. QVQLVESGGGLVQAGGSLRLSCAASGSIFSGYVKGWYRQAPGKDMELVAAISGSGGSTYYADSVKGRFTISRDNAKNTVYFQMNSLKPEDTAVYYCNVDRSPTHIVGYGYWGQGTQVTVSS
4. QVQLVESGGGLVQAGGSLRLSCAASGFTFYGYAMGWYRQAPGKERELVAAISRSGVRTYYADSVKGRFTISRDNAKNTVYLQMNSLKPEDTAVYYCNAVPRYGYYWGQGTQVTVSS
5. QVQLVESGGGLVQAGASLRLSCAASGRTFAWYAMGWYRQAPGKERELVAAISSGGSTYYADSVKGRFTISRDNAKISVYLQMNSLKPEDTAVYDCAAEWHYIYAYDYWGQGTKVTVSS
6. QVQLVESGGGLVQAGGSLRLSCAASGRTYRYYAMGWYRQAPGKERELVAAITASTGRTYYADSVKGRFTISRDNAKNSVYLQMNRLKPEDTAVYYCDARQSSYRYPGSYEYWGQGTQVTVSS

["low polyreactivity", "high polyreactivity", "low polyreactivity", "high polyreactivity", "low polyreactivity", "high polyreactivity"]

# return polyreactivity (PSR sort gate) for each item in the list
1. QVQLVESGGGLVQAGGSLRLSCAASGSTIKYYAMGWYRQAPGKERELVAAINWSGDSTYYADSVKGRFTISRDNAKNTVYLQMNSLKPEDTAVYYCAVRYQKRAYYGSNYWGQGTQVTVSS
2. QVQLVESGGGLVQAGGSLRLSCASSGFTFWYYAMGWYRQAPGKERELVASISRTGGTTYYADSVKGRFTISRDNAKNTVYLQMNSLKPEDTAVYYCNARPKVYYREYDYWGQGTQVSVSS
3. QVQLVESGGGLVQAGGSLRLSCAASGRIFPYNAMGWYRQAPGKERELVAAIDWRDNTYYADSVKGRFSISRDNAKNTVYLQMNSLKPEDTAVYYCNVDYTDYFLNKYDYWGQGTQVTVSS
4. QVQLVESGGGLVQAGGSLRLSCAASGRTFYFNGMGWYRQAPGQERELVARISRRGGSTYYADSVKGRFTISRDNAKNTVYLQMNSLKPEDTAVYYCNTANYLLYDWGQGTQVNVSS
5. QVQLVESGGGLVQAGGSLRLSCAASGRTLKYNAMGWYIQAPGKERELVAGISWSGTRTYYADSVKGRFTISRDIAKNTVYLQMNSLKPEETAVYYCAAYSYLYRSSGFRYNYWGQGTPVTVSS
6. QVQLVESGGGLVQAGGSLRLSCAASGRIFKVYAMGWYRQAPGKERDLVAVISRGGSTYYADSVKGRFTISRDNAKNTVYLQMKSLKPEDTAVYYCAARLTYTGGQGAYDYWGQGTQVTVSS
7. QVQLVESGGVLVQAGGSLRLSCAASGGIFNQYAMGWYRQAPGKERELVAAISSSGSSTYYADSVKGRFTISRDNAKNTVYLLMNSLKPEDTAVYYCNTYYSYQRVGYWGQGTQVTVSS
8. QVQLVESGGGLVQAGGSLRLSCAASVRIFGYYAMGWNRQAPGTERELVATINSVGSTNYADSVKGRFTISRDNAKNTVYLQMNSLKPEDTAVYYCATDSAYTFFTYRLWRHGYWGQGTQVTVSS

high polyreactivity
high polyreactivity
low polyreactivity
high polyreactivity
high polyreactivity
high polyreactivity
high polyreactivity
low polyreactivity

Data request, read-out polyreactivity (PSR sort gate), for "QVQLVESGGGLVQAGGSLRLSCAASGGIFRHNAMGWYRQAPGKERELVAAISRSGGNTYYADSVKGRFTISRDNAKNTVYLQMNSLKPEDTAVYYCNKIEYDSWADHVYWGQGTQVTVSS"
low polyreactivity
